Values compiled from paper PMC6856805.

# assayInfo: Solubility in buffered aqueous solutions
# Format: physicochemical
# testSettings: buffered aqueous solution, 25 °C, aqueous buffer; pH 5, 25 ± 2 °C; read-out: Solubility in water
# From the text: Syntex derived many basic physicochemical properties for both MPM and MPA in the early 1990s. The results for MPA are mostly given in the present study.
endpointLabel: solubility (µg/mL)
# number only, unit µg/mL dropped from output

Give me measured solubility, please, for this compound: COc1c(C)c2c(c(O)c1CC=C(C)CCC(=O)O)C(=O)OC2
45

###

# assayInfo: n-octanol/water distribution coefficient (log DOW), shake-flask method
# Type: physicochemical
# testSettings: pH 9, pH 9, read-out: Log D OW
# Source text: Syntex derived many basic physicochemical properties for both MPM and MPA in the early 1990s. The results for MPA are mostly given in the present study.
endpointLabel: logD

Give me measured logD, please, for this compound: COc1c(C)c2c(c(O)c1CC=C(C)CCC(=O)O)C(=O)OC2
≤ -1.54

###

# assayInfo: n-octanol/water distribution coefficient (log DOW), shake-flask method
# Format: physicochemical
# testSettings: pH 5, pH 5 to 9, read-out: log D OW values
endpointLabel: logD

Give me measured logD, please, for this compound: COc1c(C)c2c(c(O)c1CC=C(C)CCC(=O)O)C(=O)OC2
≤ 2.28

###

# assayInfo: n-octanol/water distribution coefficient (log DOW), shake-flask method
# Type: physicochemical
# testSettings: pH 7, pH 7, read-out: Log D OW
endpointLabel: logD
// no unit, no text: just the number

Give me measured logD, please, for this compound: COc1c(C)c2c(c(O)c1CC=C(C)CCC(=O)O)C(=O)OC2
0.48
